List of coated signal values.
# ASSAY TARGET: T1, soluble recombinant human PD-1 receptor (human, UniProt Q15116 25-167, limits assumed)
# T1 construct: also called human PD-1 receptors
# T1 sequence (Q15116 25-167 limits assumed): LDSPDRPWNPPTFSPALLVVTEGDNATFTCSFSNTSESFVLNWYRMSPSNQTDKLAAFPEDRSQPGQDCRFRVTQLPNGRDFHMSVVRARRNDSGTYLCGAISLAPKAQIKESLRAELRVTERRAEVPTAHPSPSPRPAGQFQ
# PROTOCOL: clonal phage ELISA, peptide on phage, wells coated with PD-1
OBSERVABLE: coated signal

>  <BINDER>
QTRTVPMPKIHHPPWQNVVP (Found by phage display; also called peptide QP20) [QP20]

>  <RECORDED RESULT>
0.851

$$$$
>  <BINDER>
SSYHHFKMPELHFGKNTFHQ (Found by phage display; also called peptide SQ20) [SQ20]

>  <RECORDED RESULT>
0.284

$$$$
>  <BINDER>
WNLPASFHNHHIRPHEHEWIQ (also called WQ-21; peptide WQ20) [WQ20]

>  <RECORDED RESULT>
0.275

$$$$
>  <BINDER>
HHHQVYQVRSHWTGMHSGHD (Found by phage display; also called peptide HD20) [HD20]

>  <RECORDED RESULT>
0.281

$$$$
